biological target: Tyrosine-protein phosphatase non-receptor type 11 (Homo sapiens, UniProt Q06124); assay: Inhibition of GST fused SHP2 PTP domain (unknown origin) using EFpYAEVGRSPPDPAK peptide as substrate incubated for 30 mins by malachite green staining based analysis
Sequence (Q06124 whole entry, the tested form may be a part): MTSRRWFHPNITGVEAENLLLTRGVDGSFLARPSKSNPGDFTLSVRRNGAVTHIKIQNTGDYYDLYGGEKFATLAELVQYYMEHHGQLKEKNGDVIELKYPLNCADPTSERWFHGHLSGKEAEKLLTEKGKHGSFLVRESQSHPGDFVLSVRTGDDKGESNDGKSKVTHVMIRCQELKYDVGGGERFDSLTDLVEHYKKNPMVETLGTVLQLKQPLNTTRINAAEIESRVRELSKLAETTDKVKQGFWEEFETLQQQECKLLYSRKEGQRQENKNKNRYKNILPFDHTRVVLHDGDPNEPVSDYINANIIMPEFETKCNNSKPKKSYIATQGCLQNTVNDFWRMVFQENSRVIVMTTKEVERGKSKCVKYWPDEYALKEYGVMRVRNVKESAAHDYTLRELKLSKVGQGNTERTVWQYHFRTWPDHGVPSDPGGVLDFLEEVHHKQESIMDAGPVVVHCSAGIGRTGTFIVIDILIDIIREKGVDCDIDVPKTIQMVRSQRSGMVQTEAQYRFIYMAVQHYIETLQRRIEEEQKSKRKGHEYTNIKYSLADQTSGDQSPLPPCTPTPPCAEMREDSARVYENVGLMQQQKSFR
Quantity kind: IC50 (µM)

                            compound_string  measurement
0  O=C(CCn1cnc2sc3c(c2c1=O)CCCCC3)Nc1ccccc1[N+](=O)[O-]         9.97

###

Target: Receptor-type tyrosine-protein phosphatase O (Homo sapiens)
Sequence (Q16827 whole entry): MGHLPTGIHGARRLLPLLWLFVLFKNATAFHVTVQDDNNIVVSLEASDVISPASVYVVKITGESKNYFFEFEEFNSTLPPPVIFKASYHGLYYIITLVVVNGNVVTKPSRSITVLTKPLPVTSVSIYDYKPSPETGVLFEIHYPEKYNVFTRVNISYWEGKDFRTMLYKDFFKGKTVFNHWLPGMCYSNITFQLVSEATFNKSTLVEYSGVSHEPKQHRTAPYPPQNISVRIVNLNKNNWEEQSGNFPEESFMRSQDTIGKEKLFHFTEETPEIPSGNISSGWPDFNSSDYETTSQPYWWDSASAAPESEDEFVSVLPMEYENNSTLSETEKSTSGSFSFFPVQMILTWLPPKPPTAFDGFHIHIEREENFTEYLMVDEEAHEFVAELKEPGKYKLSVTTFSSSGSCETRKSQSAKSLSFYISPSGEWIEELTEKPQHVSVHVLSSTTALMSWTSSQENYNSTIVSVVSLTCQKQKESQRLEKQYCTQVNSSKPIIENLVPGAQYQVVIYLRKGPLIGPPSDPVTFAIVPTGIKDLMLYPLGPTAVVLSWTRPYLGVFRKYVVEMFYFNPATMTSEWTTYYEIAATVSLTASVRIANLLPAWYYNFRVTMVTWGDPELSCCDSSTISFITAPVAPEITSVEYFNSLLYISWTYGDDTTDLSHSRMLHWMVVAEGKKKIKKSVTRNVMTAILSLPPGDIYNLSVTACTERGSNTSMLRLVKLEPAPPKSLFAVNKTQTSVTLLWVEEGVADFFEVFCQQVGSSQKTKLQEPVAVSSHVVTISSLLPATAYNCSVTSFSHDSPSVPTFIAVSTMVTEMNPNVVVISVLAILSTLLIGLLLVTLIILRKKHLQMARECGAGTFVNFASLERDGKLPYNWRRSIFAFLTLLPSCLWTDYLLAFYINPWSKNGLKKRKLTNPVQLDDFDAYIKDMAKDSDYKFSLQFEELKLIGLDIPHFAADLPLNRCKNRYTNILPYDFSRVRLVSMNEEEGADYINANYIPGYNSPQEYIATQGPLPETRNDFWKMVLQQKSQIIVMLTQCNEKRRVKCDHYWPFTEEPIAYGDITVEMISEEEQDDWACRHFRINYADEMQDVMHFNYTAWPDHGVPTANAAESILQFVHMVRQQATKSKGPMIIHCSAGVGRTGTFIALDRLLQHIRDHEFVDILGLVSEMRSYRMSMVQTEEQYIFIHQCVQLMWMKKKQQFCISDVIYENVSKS
pKi: −log10 of the molar value.
Quantity kind: pKi

>>> df
                            compound_string  quantity_kind  measurement
0  CCCCCCN(Cc1ccc(C#Cc2ccc(CCCC)cc2)cc1)c1ccc(O)c(C(=O)O)c1            pKi         6.91
